src = ChEMBL document CHEMBL1152447

test system: HeLa; assay: Cytotoxicity against human HeLa cells after 72 hrs by trypan blue assay; type: functional, cell-based
Each entry below carries its recorded IC50.
Record the value in nM, omitting the unit from your answer.

Some solved entries appear below for comparison.
compound: CN(C)CCCn1c2ccccc2c2sc3cc(Cl)ccc3c(=O)c21
reported_result: 14000

compound: COc1ccc2c(=O)c3c(sc2c1)c1ccccc1n3CCCN(C)C
reported_result: 2900

compound: Cc1c2ccncc2c(C)c2c1[nH]c1ccccc12 [ELLIPTECINE]
reported_result: 290

compound: CCN(CC)CCn1c2ccccc2c2sc3cc(Cl)ccc3c(=O)c21
reported_result: 4330

compound: COc1ccc2c(=O)c3c(sc2c1)c1cc(Cl)ccc1n3CCCN(C)C
reported_result: 1850

Task item: // lookup IC50 for CCN(CC)CCCn1c2ccc(OC)cc2c2sc3cc(OC)ccc3c(=O)c21
Reply: 2500

Task item: // lookup IC50 for COc1ccc2c(=O)c3c(sc2c1)c1cc(OC)ccc1n3CCN(C)C
Reply: 2150

Task item: // lookup IC50 for CCN(CC)CCCn1c2ccccc2c2sc3cc(Cl)ccc3c(=O)c21
Reply: 2910

Task item: // lookup IC50 for CCN(CC)CCn1c2ccc(Cl)cc2c2sc3cc(OC)ccc3c(=O)c21
Reply: 1120

Task item: // lookup IC50 for COc1ccc2c(=O)c3c(sc2c1)c1cc(OC)ccc1n3CCCN(C)C
Reply: 2600

Task item: // lookup IC50 for CCN(CC)CCn1c2ccc(OC)cc2c2sc3cc(OC)ccc3c(=O)c21
Reply: 2300

Task item: // lookup IC50 for CCN(CC)CCCn1c2ccc(Cl)cc2c2sc3cc(OC)ccc3c(=O)c21
Reply: 1680

Task item: // lookup IC50 for COc1ccc2c(=O)c3c(sc2c1)c1cc(Cl)ccc1n3CCN(C)C
Reply: 1820

Task item: // lookup IC50 for CCN(CC)CCn1c2ccccc2c2sc3cc(OC)ccc3c(=O)c21
Reply: 2700

Task item: // lookup IC50 for CCN(CC)CCCn1c2ccccc2c2sc3cc(OC)ccc3c(=O)c21
Reply: 3900

Task item: // lookup IC50 for COc1ccc2c(=O)c3c(sc2c1)c1ccccc1n3CCN(C)C
Reply: 1300

Task item: // lookup IC50 for CN(C)CCn1c2ccccc2c2sc3cc(Cl)ccc3c(=O)c21
Reply: 1530
